// reported pIC50 for each item listed
target: human EDG-2 (Homo sapiens, UniProt Q92633); construct: cDNA of the cloned human EDG-2 was introduced into pEFneo, which is an animal expression vector; assay: Inhibitory activity on LPA-induced elevation of intracellular Ca2+ level; details: 50% inhibition of elevation of intracellular Ca2+ level by LPA, human EDG-2/HepG2 cells, fura-2
Sequence (Q92633 whole entry): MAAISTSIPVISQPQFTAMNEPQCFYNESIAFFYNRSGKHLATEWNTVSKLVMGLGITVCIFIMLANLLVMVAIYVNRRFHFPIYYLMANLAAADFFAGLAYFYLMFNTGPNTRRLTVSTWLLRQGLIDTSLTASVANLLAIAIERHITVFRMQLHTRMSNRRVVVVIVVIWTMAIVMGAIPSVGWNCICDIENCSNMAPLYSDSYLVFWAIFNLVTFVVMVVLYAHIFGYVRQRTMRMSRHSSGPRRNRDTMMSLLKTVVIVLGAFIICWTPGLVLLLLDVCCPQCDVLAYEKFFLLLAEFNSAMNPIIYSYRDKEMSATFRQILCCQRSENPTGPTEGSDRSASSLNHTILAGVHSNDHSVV
pIC50: −log10 of the molar value.

Here's what some known entries look like.
compound="Cc1noc(-c2ccco2)c1NC(=O)OC(C)c1ccccc1 (centres unmarked)" test_value=5.00
compound="Cc1onc(-c2ccc(CO)cc2)c1NC(=O)OC(C)c1ccccc1Cl (centres unmarked)" test_value="5.00 to 5.52"
compound="Cc1noc(-c2cccc(CCl)c2)c1NC(=O)OC(C)c1ccccc1Cl (centres unmarked)" test_value="5.52 to 6.00"
compound="CCc1noc(-c2ccc(CSCC(=O)OC)cc2)c1NC(=O)OC(C)c1ccccc1Cl (centres unmarked)" test_value="5.00 to 5.52"

// moving on: another record for pIC50
// pIC50 lookup, compound = Cc1noc(-c2ccc(CNCCF)cc2)c1NC(=O)OC(C)c1ccccc1Cl (centres unmarked) , result: 4.52 to 5.00

---

biological target: human EDG-2 (Homo sapiens, UniProt Q92633); construct: cDNA of the cloned human EDG-2 was introduced into pEFneo, which is an animal expression vector; test: Inhibitory activity on LPA-induced elevation of intracellular Ca2+ level; conditions: 50% inhibition of elevation of intracellular Ca2+ level by LPA, human EDG-2/HepG2 cells, fura-2
Reported Metric: IC50 (µM)

A = Cc1noc(-c2ccccc2)c1NC(=O)OCc1ccccc1
B = CCc1noc(-c2ccc(CSCCC(=O)OC)cc2)c1NC(=O)OC(c1ccccc1)C(F)(F)F (stereo not shown)
Challenge: Hi team, can someone confirm which has the larger IC50: A or B ? Thanks. Give the label under which the chosen entry appears.
Response given: A
(A: 30 µM, B: 10 µM)

---

target: human EDG-2 (Homo sapiens, UniProt Q92633); construct: cDNA of the cloned human EDG-2 was introduced into pEFneo, which is an animal expression vector; assay: Inhibitory activity on LPA-induced elevation of intracellular Ca2+ level; settings: 50% inhibition of elevation of intracellular Ca2+ level by LPA, human EDG-2/HepG2 cells, fura-2
pIC50: −log10 of the molar value.
Reported Metric: pIC50

# count of solved cases: 10
compound="CCc1noc(-c2ccc(CSCCC(=O)OC)cc2)c1NC(=O)OC(C)c1ccccc1F (stereo not drawn)" test_value="5.00 to 5.52"
compound="CCNCc1ccc(-c2onc(C)c2NC(=O)OC(C)c2ccccc2Cl)cc1 (stereo not drawn)" test_value="4.00 to 4.52"
compound="Cc1noc(-c2ccc(CNCc3ccccn3)cc2)c1NC(=O)OC(C)c1ccccc1Cl (stereo not drawn)" test_value="4.52 to 5.00"
compound="Cc1ccc(-c2onc(C)c2NC(=O)OC(C)c2ccccc2Cl)cc1 (stereo not drawn)" test_value=5.00
compound="Cc1noc(-c2ccc(CSCCc3ccccc3)cc2)c1NC(=O)OC(C)c1ccccc1Cl (stereo not drawn)" test_value="4.52 to 5.00"
compound="Cc1ccc(-c2onc(C)c2NC(=O)OC(C)c2ccccc2F)cc1 (stereo not drawn)" test_value="4.52 to 5.00"
compound="Cc1onc(-c2cccc(C(F)(F)F)c2)c1NC(=O)OC(C)c1ccccc1Cl (stereo not drawn)" test_value=4.52
compound="C=CC(OC(=O)Nc1c(-c2ccccc2)noc1C)c1ccccc1 (stereo not drawn)" test_value="4.00 to 4.52"
compound="COC(=O)C[S+]([O-])Cc1ccc(-c2onc(C)c2NC(=O)OC(C)c2ccccc2Cl)cc1 (stereo not drawn)" test_value="5.00 to 5.52"
compound="CCSCc1ccc(-c2onc(C)c2NC(=O)OC(C)c2ccccc2Cl)cc1 (stereo not drawn)" test_value="5.00 to 5.52"

According to the records, this compound Cc1noc(-c2ccc(CSCCO)cc2)c1NC(=O)OC(C)c1ccccc1Cl (stereo not drawn) displays pIC50 of 5.00 to 5.52

// sample `Cc1onc(-c2ccccc2)c1NC(=O)O[C@@H](C)c1ccccc1` , its pIC50 was ≤ 4.00

Lab note: COC(=O)CSCc1cccc(-c2onc(C)c2NC(=O)OC(C)c2ccccc2Cl)c1 (stereo not drawn) gave pIC50 of 5.00 to 5.52

Entry `Cc1noc(-c2cccc(F)c2)c1NC(=O)O[C@H](C)c1ccccc1Br` ; pIC50 = 5.00 to 5.52

For record Cc1noc(-c2cccc(CSc3nc[nH]n3)c2)c1NC(=O)OC(C)c1ccccc1Cl (stereo not drawn) the listed pIC50 is 5.00 to 5.52

These data points were gathered from patent US6964975B2.
